Just for reference, patent US10800813 is where these values come from.

We begin with a simple list: items and their reported Ki.
Molecular target: T1, human plasma Kallikrein (human, UniProt P03952 20-638, limits assumed)
T1 construct: also called hPK; human PK
T1 sequence (P03952 20-638 limits assumed): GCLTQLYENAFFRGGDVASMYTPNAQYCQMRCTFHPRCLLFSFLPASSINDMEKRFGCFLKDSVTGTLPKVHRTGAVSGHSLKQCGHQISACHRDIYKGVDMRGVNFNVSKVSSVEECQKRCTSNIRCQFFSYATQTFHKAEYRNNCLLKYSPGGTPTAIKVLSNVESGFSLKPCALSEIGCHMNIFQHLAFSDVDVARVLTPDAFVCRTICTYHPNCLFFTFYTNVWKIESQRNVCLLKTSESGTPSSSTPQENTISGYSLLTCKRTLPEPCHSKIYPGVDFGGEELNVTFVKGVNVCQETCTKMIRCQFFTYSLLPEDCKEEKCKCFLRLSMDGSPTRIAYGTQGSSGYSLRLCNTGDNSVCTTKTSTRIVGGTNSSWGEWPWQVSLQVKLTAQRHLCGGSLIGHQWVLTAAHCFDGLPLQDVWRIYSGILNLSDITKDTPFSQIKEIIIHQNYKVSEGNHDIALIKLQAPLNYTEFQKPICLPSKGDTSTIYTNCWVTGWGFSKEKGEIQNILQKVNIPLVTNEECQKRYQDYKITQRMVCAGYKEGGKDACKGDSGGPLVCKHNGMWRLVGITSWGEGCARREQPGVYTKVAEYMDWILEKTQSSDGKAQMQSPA
Test: enzyme inhibition assay
Numbered stars: 1 amine (or outer) side, 2 acyl side, 3 side chain; on linkers, the order of the positions; unused ones are H or OH. Bridge positions count the residues as written; N and C are the ends. Ends that are not written are not given here. TBMB = c1c(C[*:1])cc(C[*:3])cc1C[*:2]
Give the number; nM is assumed, so skip it.

Reference set, count: 3
# binder, metric, endpointValue
measured = [
    ("ACFKHCRVACA (linker 2-6-10 via TBMB, also called PK123) [3B8]", "Ki", 7),
    ("ACTYPYKCLHQNLCA (linker 2-8-14 via TBMB, also called PK112) [2A10]", "Ki", 18),
    ("H-ACSDRFRNCPADEALCG-NH2 (linker 2-9-16 via TBMB, 6x6 bicyclic peptide) [PK15]", "Ki", 3),
]

Ki reading for ACRWPARCTHQNYCA (linker 2-8-14 via TBMB; not fully specified (N-terminus, C-terminus), also called PK106) [06-54 (2A2)] : 5
